Each entry below carries its reported apparent KD of MS2 coat protein.
- System: MS2 coat protein
- Assay overview: apparent KD of MS2 coat protein; designed switch direction (-1 OFF switch, 1 ON switch): 1; higher = weaker reporter binding
- Measurement parameters: input ligand: none
Value type: apparent KD of MS2 coat protein

{"columns": ["Sequence data", "Study target", "Result value"],
 "data": [
  ["GGUCCAUCAUGAGGAUAUGGCACCUUAUUGGUGCCAGAAGGCAUGUCUAUAGACAUGAGGAUCACCCAUGUAAUAAAUUGGACC [Eli NG1ss - 93] (Eterna round: R96, puzzle: Same State NG 1)", "MS2 coat protein", "0.831 µM"],
  ["GAGCUCGUGUGAGGAUAUGCCGCCGUUUCGGCUGCAGAAGGUGCUACGUUACAUGAGGAUCACCCAUGUCUCUGUUGUUUCGUU [salish99_SSNG1_r04_959] (Eterna round: R96, puzzle: Same State NG 1)", "MS2 coat protein", "0.0249 µM"],
  ["GGUAGGUUACUACCAAACAUGAGGAUCACCCAUGUUGAUGGGAAGGAUAUGGUACCUUUUAGGUACCAGAAGGUCUAAUCGAUC [NGss mod of JL's mod of Fisker 4] (Eterna round: R96, puzzle: Same State NG 3)", "MS2 coat protein", "0.166 µM"],
  ["UCGGGCGUACUUGCUGACAUGAGGAUCACCCAUGUCCUUGGGAAGGAUAUGGUUCCGUUUCGGUUCCAGAAGGUCCUGGCUGCU [salish99_SSNG3_r04_317] (Eterna round: R96, puzzle: Same State NG 3)", "MS2 coat protein", "0.0782 µM"]
]}

====

- System: K4 kissing-loop RNA reporter;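 further: bound reporter read as fluorescence of individual clusters on recovered sequencing chips by microscopy, with normalized cluster intensities fitted with a binding model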
- Assay overview: apparent KD of K4 kissing-loop reporter; higher = weaker reporter binding
- Measurement parameters: Eterna round: R107; input ligand: arginine 13.2 mM
Value type: apparent KD of K4 kissing-loop reporter (nM)

{"columns": ["Sequence data", "Result value"],
 "data": [
  ["GAAUGGAGUGAUGUUCCAUUAACGAUCCUACGAGGACCGGUACGGCCGCCACUCGUAUUGCAGUGAUGUUGCAACCAGCCGUACU [Exclusion Tryptophan A GF 9]", 113],
  ["AUUAUAUAGGCGGCCGCCACUAGUGAUGUUAGUGACUUUAUGAAAACAUAAAGAAUAAAAUAAUAUAGGACCGGGCCAUAAUAUU [AstrosExTryB#5]", 369],
  ["GCCGUACGCAUGGAUACCAGUCUACAUCGCAGUGAUGUUGCGUAGUUCAGAUAGAUUGCCGACCCUUGGCAGCCAUGCGUACGGC", 109]
]}

====

- System: MS2 coat protein
- Assay overview: apparent KD of MS2 coat protein; designed switch direction (-1 OFF switch, 1 ON switch): -1; higher = weaker reporter binding
- Measurement parameters: Eterna round: R95; input ligand: none

{"columns": ["Sequence data", "apparent KD of MS2 coat protein (nM)"],
 "data": [
  ["AGUAGUAGUAUCCGAUCCUACAUGAGGAUCACCCAUGUAGCUAGACGUGCACGCGAUGCUCGUCAGACUACCGGAUG [salish99_TOv1_r3_041] (puzzle: Sensor v3, turn-off variant 1)", 29.6],
  ["AAAUACAAGUAAAGAUCCUACAUGAGGAUCACCCAUGUGCUCGUCUUAUAAAGUACUAUCACGAAAGUGAUAGUACA [Sensor 3, v1 - 20] (puzzle: Sensor v3, turn-off variant 1)", 112],
  ["GAAAGGUGAGGAUAUACACUGCGGUGUAGUCCUCAUAAAAGACAUGAGGAUCACCCAUGUAGAAGGCACAUAAA [Rirereis] (puzzle: Exclusion 2)", 27.5]
]}
